# TEST_SYSTEM: EGFR WT (Homo sapiens, UniProt P00533)
# Construct: EGFR WT, cytoplasmic domain (669-1210), GST-tagged, Carna
# Sequence (P00533 669-1210): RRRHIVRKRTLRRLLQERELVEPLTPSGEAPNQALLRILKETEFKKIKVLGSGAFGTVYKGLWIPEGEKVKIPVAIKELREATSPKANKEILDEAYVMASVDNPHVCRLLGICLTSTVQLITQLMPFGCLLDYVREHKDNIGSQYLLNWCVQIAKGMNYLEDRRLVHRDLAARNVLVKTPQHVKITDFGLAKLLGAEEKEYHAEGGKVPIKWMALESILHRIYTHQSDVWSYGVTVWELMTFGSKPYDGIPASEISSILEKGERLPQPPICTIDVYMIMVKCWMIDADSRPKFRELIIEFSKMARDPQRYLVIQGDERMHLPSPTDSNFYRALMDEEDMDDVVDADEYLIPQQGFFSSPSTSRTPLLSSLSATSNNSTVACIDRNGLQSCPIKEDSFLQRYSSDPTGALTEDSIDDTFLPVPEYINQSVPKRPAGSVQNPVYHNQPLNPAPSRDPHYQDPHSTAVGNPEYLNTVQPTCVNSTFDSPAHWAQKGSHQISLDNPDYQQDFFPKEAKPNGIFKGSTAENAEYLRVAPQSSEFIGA
# ASSAY_NOTES: Time-dependent kinase inhibition assay (Sox-based substrate)
REPORTED_ENDPOINT: pKi
// returns pKi (minus log10 of molar concentration), number only

I'd like to know its pKi. The compound in question is C=CC(=O)Nc1ccc(OC)c(Nc2cc(-c3[nH]c(CC)nc3-c3cccc(NC(=O)c4cccc5c4NC(=O)c4ccccc4N5)c3)ccn2)c1 [Compound 4]
5.92

* * *

# TEST_SYSTEM: EGFR L858R/T790M kinase domain (Homo sapiens, UniProt P00533, L858R/T790M)
# Construct: The EGFR kinase domain (residues 696-1022) was cloned into pTriEx; 6xHis (N, cleaved yes); GST (N, cleaved yes); made in house; host or cells: SF9 insect cells (baculovirus)
# Sequence (P00533 696-1022 T790M/L858R): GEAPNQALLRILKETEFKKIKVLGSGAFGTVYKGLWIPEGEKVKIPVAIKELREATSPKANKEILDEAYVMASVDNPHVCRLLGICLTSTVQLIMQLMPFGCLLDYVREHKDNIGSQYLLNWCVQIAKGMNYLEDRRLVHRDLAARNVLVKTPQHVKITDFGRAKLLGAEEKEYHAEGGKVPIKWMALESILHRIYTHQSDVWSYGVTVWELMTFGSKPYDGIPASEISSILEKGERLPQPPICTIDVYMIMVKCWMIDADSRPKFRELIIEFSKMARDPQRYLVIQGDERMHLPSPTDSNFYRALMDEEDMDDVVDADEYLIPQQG
# ASSAY_NOTES: HTRF-based activity assay
# Type: biochemical
# CONDITION_PARAMETERS: read-out: IC50 values, LRTM
REPORTED_ENDPOINT: IC50

Quick one: IC50 of CSc1nc(-c2cccc(CN3C(=O)c4ccccc4Nc4ccc(F)cc43)c2)c(-c2ccnc(NC(C)=O)c2)[nH]1 [Compound 1] ?
> 1000 nM

* * *

# TEST_SYSTEM: WT EGFR kinase domain (Homo sapiens)
# Construct: The EGFR kinase domain (residues 696-1022) was cloned into pTriEx; 6xHis (N, cleaved yes); GST (N, cleaved yes); made in house; host or cells: SF9 insect cells (baculovirus)
# Sequence (P00533 696-1022): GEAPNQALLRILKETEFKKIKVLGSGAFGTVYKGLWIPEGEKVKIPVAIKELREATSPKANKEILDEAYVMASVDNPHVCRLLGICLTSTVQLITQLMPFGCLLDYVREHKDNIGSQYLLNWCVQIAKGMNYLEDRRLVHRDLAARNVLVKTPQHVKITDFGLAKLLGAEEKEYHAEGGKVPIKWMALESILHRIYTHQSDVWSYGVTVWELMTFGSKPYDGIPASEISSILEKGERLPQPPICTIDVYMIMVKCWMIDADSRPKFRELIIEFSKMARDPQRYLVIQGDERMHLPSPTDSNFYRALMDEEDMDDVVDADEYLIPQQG
# ASSAY_NOTES: HTRF-based activity assay
# Assay type: biochemical
# CONDITION_PARAMETERS: read-out: IC50 values, WT EGFR
# Protocol: Protein expression and purification. The EGFR kinase domain (residues 696-1022) was cloned into pTriEx with an N-terminal 6×His-glutathione S-transferase (GST) fusion tag followed by a TEV protease cleavage site. […] HTRF Assays. Biochemical assays for EGFR domains were carried out using a homogeneous time-resolved fluorescence (HTRF) KinEASE-TK (Cisbio) assay, as described previously. […]
pIC50: −log10 of the molar value.
REPORTED_ENDPOINT: pIC50

Give the measured pIC50 of CSc1nc(-c2cccc(CN3C(=O)c4ccccc4Nc4ccc(F)cc43)c2)c(-c2ccnc(NC(C)=O)c2)[nH]1 [Compound 1] .
< 6.00

* * *

# TEST_SYSTEM: EGFR L858R/T790M/C797S kinase domain (Homo sapiens, UniProt P00533, C797S/L858R/T790M)
# Construct: The EGFR kinase domain (residues 696-1022) was cloned into pTriEx; 6xHis (N, cleaved yes); GST (N, cleaved yes); made in house; host or cells: SF9 insect cells (baculovirus)
# Sequence (P00533 696-1022 T790M/C797S/L858R): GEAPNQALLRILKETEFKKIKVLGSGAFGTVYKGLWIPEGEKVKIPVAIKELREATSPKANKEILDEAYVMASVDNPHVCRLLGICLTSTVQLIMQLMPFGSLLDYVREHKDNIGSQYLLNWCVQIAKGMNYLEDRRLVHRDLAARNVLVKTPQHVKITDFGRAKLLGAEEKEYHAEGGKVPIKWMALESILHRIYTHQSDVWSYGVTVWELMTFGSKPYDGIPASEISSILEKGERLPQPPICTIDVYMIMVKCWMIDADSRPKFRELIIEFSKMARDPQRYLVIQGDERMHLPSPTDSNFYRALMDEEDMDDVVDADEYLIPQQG
# ASSAY_NOTES: HTRF-based activity assay
# Type: biochemical
# CONDITION_PARAMETERS: 100 μM ATP, enzyme 0.02 nM, read-out: Biochemical EGFR IC50, LRTMCS
Provide the reported IC50 of each item.
The reply should be a number in nM, with the unit left off.

Please tell me: IC50 of "CCc1nc(-c2cccc(NC(=O)c3cccc4c3NC(=O)c3ccccc3N4)c2)c(-c2ccnc(NC(C)=O)c2)[nH]1" , system EGFR L858R/T790M/C797S kinase domain (Homo sapiens, UniProt P00533, C797S/L858R/T790M)?
0.063

What is its IC50 for EGFR L858R/T790M/C797S kinase domain (Homo sapiens, UniProt P00533, C797S/L858R/T790M)? Entry: "CSc1nc(-c2cccc(NC(=O)c3cccc4c3NC(=O)c3ccccc3N4)c2)c(-c2ccnc(NC(C)=O)c2)[nH]1"
0.064

Please state recorded IC50 (tested on EGFR L858R/T790M/C797S kinase domain (Homo sapiens, UniProt P00533, C797S/L858R/T790M)) of "CCc1nc(-c2cccc(NC(=O)c3cccc4c3NC(=O)c3ccccc3N4)c2)c(-c2ccnc(Nc3ccccc3)c2)[nH]1"
1

IC50 of "C=CC(=O)Nc1ccc(OC)c(Nc2cc(-c3[nH]c(CC)nc3-c3cccc(NC(=O)c4cccc5c4NC(=O)c4ccccc4N5)c3)ccn2)c1" on EGFR L858R/T790M/C797S kinase domain (Homo sapiens, UniProt P00533, C797S/L858R/T790M)?
1.8
